Assay: qHTS of pediatric cancer cell lines to identify multiple opportunities for drug repurposing: Primary screen for BT-12 cells (AID 1347101); further: nearly all actives have a fitted effect of over 25% in size; further: potency means the concentration at half of the fitted maximal effect
Conditions: BT-12 viability, CellTiter-Glo luminescence, 48 h; series mostly up to 57.3 µM
Description: Drug repurposing or repositioning has been offered as a strategy for drug development in oncology programs. […] [1] Shen, M et al. Quantitative high-throughput phenotypic screening of pediatric cancer cell lines identifies multiple opportunities for drug repurposing. […] Cells were assayed in growth media at a density of 500-1,000 cells/well. […] After a 15 min incubation at room temperature, samples were analyzed for luminescence intensity using a ViewLux High-throughput CCD imager equipped with clear filters.
Inconclusive results are not listed. Active and inactive are the calls of the source. The call rests on the fitted dose curve; in most records, active means well fitted cell-killing curve with a large enough effect; inconclusive means small, poorly fitted or top-dose-only effect; inactive means flat fitted curve, though single readings scatter.
reportedProperty: Potency

Previously resolved entries follow.
[
  {
    "molecule": "C=C(c1ccc(C(=O)O)cc1)c1cc2c(cc1C)C(C)(C)CCC2(C)C",
    "Potency": "inactive"
  },
  {
    "molecule": "Cc1cc2cc3c(C)cc(=O)oc3c(C)c2o1",
    "Potency": "inactive"
  },
  {
    "molecule": "Cc1c(C(=O)NN2CCCCC2)nn(-c2ccc(Cl)cc2Cl)c1-c1ccc(Cl)cc1",
    "Potency": "4.85 µM (active)"
  },
  {
    "molecule": "Cc1cc(Cl)ccc1OCCCC(=O)NO",
    "Potency": "inactive"
  },
  {
    "molecule": "CC(C)[N+]1(C)[C@@H]2CC[C@H]1CC(OC(=O)C(CO)c1ccccc1)C2 (stereo partly specified)",
    "Potency": "inactive"
  },
  {
    "molecule": "CCN(CC)CCOc1ccc(Nc2ncc3cc(-c4c(Cl)cccc4Cl)c(=O)n(C)c3n2)cc1",
    "Potency": "19.3 µM (active)"
  },
  {
    "molecule": "CN(C)C(=O)COC(=O)Cc1ccc(OC(=O)c2ccc(N=C(N)N)cc2)cc1",
    "Potency": "inactive"
  },
  {
    "molecule": "O=C(c1ccccc1)c1ccc2n1CCC2C(=O)O (stereo unspecified)",
    "Potency": "inactive"
  }
]

Ask: Reported Potency for Nc1ccn([C@@H]2O[C@H](CO)[C@@H](O)C2O)c(=O)n1 (stereo partly specified) : what is it?
Result: inactive

Ask: Next: "Cc1nc(-c2ccc(OCC(C)C)c(C#N)c2)sc1C(=O)O"
Result: inactive

Ask: Next: "CC(C)C[C@H](NC(=O)[C@H](Cc1ccccc1)NC(=O)c1cnccn1)B(O)O"
Result: 0.0432 µM (active)

---

Test: Quantitative High-Throughput drug screen in 47 multiple myeloma cell lines against the NCATS MIPE library collection: NCIH929_DSMZ cell viability assay (AID 1918978); further: nearly all actives have a fitted effect of over 35% in size
Details: NCI-H929 myeloma viability, CellTiter-Glo ATP, 48 h; series mostly up to 45.8 µM
Inconclusive results are not listed. Calls of active or inactive are those of the source. Calls come from the whole dose curve; as a rule, active = well fitted cell-killing curve with a large enough effect; inconclusive = small, poorly fitted or top-dose-only effect; inactive = no such curve, though single readings can be large or run the other way.
Output constraint: value belongs to true (1) = active, false (0) = inactive

Ask: Identify the outcome logged in this assay for the compound shown: O=C(c1ccccc1)c1ccc2n1CCC2C(=O)O (configuration not stated)
Result: true (1)

Ask: Next: "CC(C)[C@H](N)C(=O)OCCOCn1cnc2c(=O)[nH]c(N)nc21"
Result: false (0)

Ask: Next: "Cc1cc(=O)oc2cc(O)ccc12"
Result: false (0)

Ask: Next: "CCCc1cc(=O)[nH]c(=S)[nH]1"
Result: false (0)

Ask: Next: "O=P(O)(O)C(O)(Cn1ccnc1)P(=O)(O)O"
Result: false (0)

Ask: Next: "COc1cc(OC)c(C(=O)CCCN2CCCC2)c(OC)c1"
Result: false (0)

Ask: Next: CCC(C)(Oc1ccc(C2(c3ccc(OC(C)(CC)C(=O)O)cc3)CCCCC2)cc1)C(=O)O (configuration not stated)
Result: false (0)

Ask: Next: "C[C@H](Cn1cnc2c(N)ncnc21)OCP(=O)(O)O"
Result: false (0)

Ask: Next: COc1cc2nc(N3CCN(C(=O)C4CCCO4)CC3)nc(N)c2cc1OC (configuration not stated)
Result: false (0)

Ask: Next: "CC(=O)NC[C@H]1CN(c2ccc(N3CCOCC3)c(F)c2)C(=O)O1"
Result: false (0)

Ask: Next: "Cc1ccc(C)c(OCCCC(C)(C)C(=O)O)c1"
Result: true (1)

Ask: Next: "CCN(CC)CCOc1ccc(Cc2ccccc2)cc1"
Result: false (0)
